KIDNEY_L values by entry
Organism: Rattus norvegicus
Test: Open TG-GATES - Regimen: Daily Repeat
Type: toxicity, organism-based, Sprague-Dawley
Set-up: regimen Daily Repeat, gender Male, age 6 weeks
Details: in vivo, po, 0 mg/kg, […], tissue Kidney, route gavage, dose level Control, time 7 day
Use g as the unit, but write only the number.

Answered cases to consult:
[[record]]
compound = "COc1ccc(Cc2nccc3cc(OC)c(OC)cc23)cc1OC [PAPAVERINE]"
scale_unit = "g"
recorded_measurement = 1.1

[[record]]
compound = "NC(=O)N/N=C/c1ccc([N+](=O)[O-])o1 [NITROFURAZONE]"
scale_unit = "g"
recorded_measurement = 1.1

[[record]]
compound = "CO[C@H]1/C=C/O[C@@]2(C)Oc3c(C)c(O)c4c(O)c(c(/C=N/N5CCN(C)CC5)c(O)c4c3C2=O)NC(=O)/C(C)=C\\C=C\\[C@H](C)[C@H](O)[C@@H](C)[C@@H](O)[C@@H](C)[C@H](OC(C)=O)[C@@H]1C [RIFAMPIN]"
scale_unit = "g"
recorded_measurement = 1.1


// query What KIDNEY_L value was documented for this compound, CCc1cc(C(N)=S)ccn1 [ETHIONAMIDE] ?
// result 1.2
